Attribute: koff
Target: T1, cynomolgus SIRP-α (cynomolgus monkey, UniProt Q5TFQ8 30-148 (human entry), limits assumed)
T1 construct: also called cyno1
T1 chain: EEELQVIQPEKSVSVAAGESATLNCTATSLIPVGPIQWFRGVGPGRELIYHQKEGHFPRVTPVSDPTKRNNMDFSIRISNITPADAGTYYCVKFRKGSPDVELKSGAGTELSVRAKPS
Test: SPR
Respond with the bare value in s⁻¹.

Example cases with answers are listed next.
binder	parameter	numeric.value
Hum1/AB21_HC_wt (antibody, V domains shown) VH: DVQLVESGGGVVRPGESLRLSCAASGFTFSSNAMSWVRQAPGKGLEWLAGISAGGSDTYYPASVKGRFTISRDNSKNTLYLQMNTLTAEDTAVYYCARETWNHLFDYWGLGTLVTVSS VL: SYELTQPPSVSVSPGQTARITCSGGSYSSYYYAWYQQKPGQAPVTLIYSDDKRPSNIPERFSGSSSGTTVTLTISGVQAEDEADYYCGGYDQSSYTNPFGGGTKLTVL	koff	0.000395
Hum1/AB25_HC_wt (antibody, V domains shown) VH: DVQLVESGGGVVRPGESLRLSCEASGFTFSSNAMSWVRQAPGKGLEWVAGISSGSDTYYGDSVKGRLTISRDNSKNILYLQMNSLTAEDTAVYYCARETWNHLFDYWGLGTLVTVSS VL: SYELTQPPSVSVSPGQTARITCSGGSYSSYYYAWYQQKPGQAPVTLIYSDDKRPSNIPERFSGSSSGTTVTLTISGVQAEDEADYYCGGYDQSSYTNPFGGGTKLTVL	koff	0.00033

Briefly, koff measured for Hum3/AB66_HC_wt (antibody, V domains shown) VH: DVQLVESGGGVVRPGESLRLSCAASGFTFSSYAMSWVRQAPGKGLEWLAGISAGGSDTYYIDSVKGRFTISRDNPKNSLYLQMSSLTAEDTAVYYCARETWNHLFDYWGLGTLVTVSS VL: SYELTQPPSVSVSPGQTARITCSGGDYYSTYYAWYQQKPGQAPVTVIHSDDKRPSDIPERFSGSSSGTTVTLTISGVQAEDEADYYCGGYDGRTYINTFGGGTKLTVL : 0.000306
